Origin of measurements: patent US5952322A

- system-name: human muscle glycogen phosphorylase a (HMGPa) (Homo sapiens, UniProt P11217)
- Sequence (P11217 2-842 limits assumed): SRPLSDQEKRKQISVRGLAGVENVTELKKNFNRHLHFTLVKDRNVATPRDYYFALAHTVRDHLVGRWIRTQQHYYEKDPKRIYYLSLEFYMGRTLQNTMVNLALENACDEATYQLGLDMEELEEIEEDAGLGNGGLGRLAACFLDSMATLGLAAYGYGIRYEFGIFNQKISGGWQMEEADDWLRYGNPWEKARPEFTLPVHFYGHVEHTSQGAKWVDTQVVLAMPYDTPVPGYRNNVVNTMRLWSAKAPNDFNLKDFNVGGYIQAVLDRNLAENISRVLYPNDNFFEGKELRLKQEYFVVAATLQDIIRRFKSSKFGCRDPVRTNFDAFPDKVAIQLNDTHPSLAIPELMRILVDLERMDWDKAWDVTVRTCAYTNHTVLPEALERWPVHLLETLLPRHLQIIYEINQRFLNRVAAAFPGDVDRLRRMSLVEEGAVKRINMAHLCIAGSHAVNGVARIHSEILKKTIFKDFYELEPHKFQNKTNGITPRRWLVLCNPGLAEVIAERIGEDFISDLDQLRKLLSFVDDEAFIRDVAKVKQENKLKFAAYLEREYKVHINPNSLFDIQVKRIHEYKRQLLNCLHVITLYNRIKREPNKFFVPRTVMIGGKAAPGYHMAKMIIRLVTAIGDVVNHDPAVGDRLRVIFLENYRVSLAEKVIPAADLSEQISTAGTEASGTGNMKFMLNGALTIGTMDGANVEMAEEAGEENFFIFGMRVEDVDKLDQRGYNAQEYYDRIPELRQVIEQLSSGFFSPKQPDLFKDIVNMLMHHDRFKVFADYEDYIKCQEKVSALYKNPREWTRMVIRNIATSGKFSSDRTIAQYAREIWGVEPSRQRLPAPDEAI
- assay-summary: GPa activity assay, reverse direction (inorganic phosphate release from glucose-1-phosphate), human muscle isoform
measured-property: IC50

Noted IC50 for `CN(C)C(=O)[C@H](O)[C@H](Cc1ccccc1)NC(=O)c1cc2cc(Cl)ccc2[nH]1` , tested on human muscle glycogen phosphorylase a (HMGPa) (Homo sapiens, UniProt P11217): 155 nM

Noted IC50 for `CON(C)C(=O)[C@H](O)[C@H](Cc1ccccc1)NC(=O)c1cc2cc(Cl)ccc2[nH]1` , tested on human muscle glycogen phosphorylase a (HMGPa) (Homo sapiens, UniProt P11217): 110 nM

Noted IC50 for `CN(CCO)C(=O)[C@H](O)[C@H](Cc1ccccc1)NC(=O)c1cc2cc(Cl)ccc2[nH]1` , tested on human muscle glycogen phosphorylase a (HMGPa) (Homo sapiens, UniProt P11217): 20 nM
